# Test system: L1210 leukemia ip in BDF1 mice, survival T/C
# experiment: NCI In Vivo Anticancer Drug Screen. Data for tumor model L1210 Leukemia (intraperitoneal) in B6D2F1 (BDF1) mice
# measurement parameters: endpoint: mean survival time; dose: 20.0 mg/kg/injection; schedule: Q01DX001 (ip); vehicle: saline; higher = longer survival
# Description: The antitumor activity of compounds was measured in mice bearing transplantable tumors. Survival or tumor size were measured and the results are expressed as the measurement made in the treated group (T) divided by the measurement made in the vehicle treated control group (C). The tumor model used in this assay is L1210 Leukemia (intraperitoneal) in B6D2F1 (BDF1) mice
Toxic doses and inconclusive results are not listed.
Measured T/C values are reported for all entries that follow.

- compound: "c1ccc(C[P+](c2ccccc2)(c2ccccc2)c2ccccc2)cc1"
  reported measurement: "96 % of control"
- compound: "O=C1CCc2c1cc(O)c1ccc(S(=O)(=O)O)cc21"
  reported measurement: "104 % of control"
- compound: "O=C1CCC2CCC(CC2)O1"
  reported measurement: "97 % of control"
- compound: "OC(c1cccc(C(O)(C(F)(F)F)C(F)(F)F)c1)(C(F)(F)F)C(F)(F)F"
  reported measurement: "100 % of control"
- compound: "Nc1c(S(=O)(=O)O)cc(Nc2cccc(CO)c2)c2c1C(=O)c1ccccc1C2=O"
  reported measurement: "101 % of control"
- compound: "Nc1nc(N)c2cc(CNc3ccc(C(=O)NC(CC(=O)O)C(=O)O)cc3)ccc2n1 (stereo not given)"
  reported measurement: "108 % of control"

Problem: So what does the record say about T/C for C=C(C(=O)c1ccccc1)C(NC(C)(C)C)c1ccccc1 (stereo not given) ?
Solution: 95 % of control

Problem: And what about the compound CC(=O)[O][Hg][CH]1CCCCC1O (stereo not given) ?
Solution: 97 % of control

Problem: Follow-up item: Cc1ccccc1[P+](Cc1ccccc1)(c1ccccc1)c1ccccc1
Solution: 100 % of control

Problem: What about Nc1ncc2c(n1)SCC2 ?
Solution: 102 % of control
